Each recorded value in this set is attributed to patent US20210253718A1.

Target: T1, FZD8-Fc (UniProt Q9H461 28-158, limits assumed)
T1 construct: extracellular domain; also called Frizzled-Fc chimera (FZD8); not shown: Fc part
T1 sequence (looked up): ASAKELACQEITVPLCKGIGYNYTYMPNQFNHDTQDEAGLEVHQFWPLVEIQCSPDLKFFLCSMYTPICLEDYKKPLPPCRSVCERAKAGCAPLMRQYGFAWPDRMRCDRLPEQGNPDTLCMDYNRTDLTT
Test: SPR, Frizzled-Fc chimera;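 further: binding targets are Fc fusions carrying an extracellular Frizzled fragment that contains the CRD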
parameter: kon (M⁻¹ s⁻¹)
One number for each entry, in M⁻¹ s⁻¹.

Consider the reported kon for these binders:
INSERT INTO measurements (binder, parameter, observed_value) VALUES
  ('IgG-2929 (antibody, V domains shown, also called Fv-2929) VH: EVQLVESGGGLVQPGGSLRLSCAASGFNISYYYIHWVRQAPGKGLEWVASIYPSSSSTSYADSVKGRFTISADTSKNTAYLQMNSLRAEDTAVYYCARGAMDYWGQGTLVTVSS VL: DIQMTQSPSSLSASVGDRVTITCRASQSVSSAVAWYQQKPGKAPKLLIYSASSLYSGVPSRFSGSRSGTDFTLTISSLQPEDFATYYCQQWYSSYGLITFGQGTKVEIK', 'kon', '3.27e+06'),
  ('IgG-2920 (antibody, V domains shown) VH: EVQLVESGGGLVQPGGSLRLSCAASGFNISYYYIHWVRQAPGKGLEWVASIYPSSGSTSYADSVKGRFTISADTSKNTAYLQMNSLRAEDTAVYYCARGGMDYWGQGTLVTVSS VL: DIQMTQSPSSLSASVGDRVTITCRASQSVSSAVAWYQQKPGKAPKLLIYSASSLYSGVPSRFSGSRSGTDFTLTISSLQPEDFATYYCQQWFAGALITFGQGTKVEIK', 'kon', '4.25e+06');

// switching to the query binder
Incoming: Supply recorded kon for IgG-2921 (antibody, V domains shown) VH: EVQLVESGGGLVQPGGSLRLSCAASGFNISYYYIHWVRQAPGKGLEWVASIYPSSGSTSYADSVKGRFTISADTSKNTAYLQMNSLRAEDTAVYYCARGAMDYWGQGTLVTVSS VL: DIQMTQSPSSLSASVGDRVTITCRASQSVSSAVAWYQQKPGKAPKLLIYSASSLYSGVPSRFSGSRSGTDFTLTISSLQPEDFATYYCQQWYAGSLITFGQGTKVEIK here.
Outgoing: 1.11e+06
